All figures here come from patent US20050020544A1.

Tested on: IL-1β secretion from activated RAW 264.7 macrophages
Test: Inhibition of IL-1β in LPS activated macrophages (ELISA)
Type: cell-based
Details: Mus musculus, RAW264.7, 24 h, read-out: inhibition of IL-1β secretion
# Lookup of reported inhibition at 10 µM keyed by entry

| Molecule | Subject Of Test | Result |
| --- | --- | --- |
| CCCCCCC(C)(C)c1cc(OC)c(C2CC(=O)C3CC2C3(C)C)c(OC)c1 (single isomer, unassigned; (-)) [Compound B] | IL-1β secretion from activated RAW 264.7 macrophages | 34% |

Query: Given CCCCCCC(C)(C)c1cc(O)c(C2CC(=O)C3CC2C3(C)C)c(O)c1 (single isomer, unassigned; (-)) [Compound A] , state its recorded inhibition at 10 µM.
Response: 76%

Query: Given CCCCCCC(C)(C)c1cc(O)c(C2CC(O)C3CC2C3(C)C)c(O)c1 (single isomer, unassigned; (-)) [Compound C] , state its recorded inhibition at 10 µM.
Response: 26%

Query: Given CCCCCCC(C)(C)c1cc(O)c([C@H]2C/C(=N/O)[C@H]3C[C@@H]2C3(C)C)c(O)c1 [Compound D] , state its recorded inhibition at 10 µM.
Response: 67%

====

Biological target: UniProt P34972
Sequence (P34972 whole entry): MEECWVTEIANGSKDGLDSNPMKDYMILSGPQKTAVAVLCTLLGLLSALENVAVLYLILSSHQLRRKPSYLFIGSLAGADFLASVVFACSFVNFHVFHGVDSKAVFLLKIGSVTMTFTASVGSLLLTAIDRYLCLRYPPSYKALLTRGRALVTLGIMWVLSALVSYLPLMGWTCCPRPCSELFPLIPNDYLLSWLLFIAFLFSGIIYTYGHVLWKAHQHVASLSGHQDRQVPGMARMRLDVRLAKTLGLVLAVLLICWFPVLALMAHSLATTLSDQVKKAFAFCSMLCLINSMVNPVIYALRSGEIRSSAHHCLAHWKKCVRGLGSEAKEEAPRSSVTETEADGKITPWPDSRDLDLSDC
Assay: biochemical
Assay type: binding
Design: purchased Perkin Elmer/NEN; host or cells: CHO cells, stably transfected (membranes)
Details: displacement of [3H]WIN 55212-2, hCB2 CHO membranes
Measured Quantity: IC50 (nM)
Entry rule: numbers only, all in nM.

| Compound | Endpoint Unit | IC50 |
| --- | --- | --- |
| CC1=CC(c2c(O)cc(-c3ccc(C(C)(C)C)cc3)cc2O)C2CC1C2(C)C (stereo not shown) | nM | 12 |
| C#CCCCCC(C)(C)c1cc(O)c(C2C=C(C)C3CC2C3(C)C)c(O)c1 (single isomer, unassigned; (+)) | nM | 0.783 |
| CCCCC(C)(C)c1cc(O)c(C2CC(=O)C3CC2C3(C)C)c(O)c1 (single isomer, unassigned; (-)) | nM | 3.8 |
| CCCCCCC(C)(C)c1cc(O)c([C@H]2CC(=O)[C@H]3C[C@@H]2C3(C)C)c(OC(=O)CCC(=O)O)c1 | nM | 1.2 |
| CCCCCCC(C)(C)c1cc(OC(=O)CCC(=O)O)c([C@H]2CC(=O)[C@H]3C[C@@H]2C3(C)C)c(OC(=O)CCC(=O)O)c1 | nM | 1.52 |

Query: Given CC(C)(CCCCC#N)c1cc(O)c([C@H]2CC(=O)[C@H]3C[C@@H]2C3(C)C)c(O)c1 , state its recorded IC50.
Response: 1.55

Query: Given CCCCC(C)(C)c1cc(O)c(C2CC(=O)C3CC2C3(C)C)c(OC(=O)CCC(=O)O)c1 (single isomer, unassigned; (-)) , state its recorded IC50.
Response: 7.4

====

Target: human CB1 receptor (Homo sapiens, UniProt P21554)
Construct: purchased Perkin Elmer/NEN; host or cells: HEK-293 cells, stably transfected (membranes)
Sequence (P21554 whole entry): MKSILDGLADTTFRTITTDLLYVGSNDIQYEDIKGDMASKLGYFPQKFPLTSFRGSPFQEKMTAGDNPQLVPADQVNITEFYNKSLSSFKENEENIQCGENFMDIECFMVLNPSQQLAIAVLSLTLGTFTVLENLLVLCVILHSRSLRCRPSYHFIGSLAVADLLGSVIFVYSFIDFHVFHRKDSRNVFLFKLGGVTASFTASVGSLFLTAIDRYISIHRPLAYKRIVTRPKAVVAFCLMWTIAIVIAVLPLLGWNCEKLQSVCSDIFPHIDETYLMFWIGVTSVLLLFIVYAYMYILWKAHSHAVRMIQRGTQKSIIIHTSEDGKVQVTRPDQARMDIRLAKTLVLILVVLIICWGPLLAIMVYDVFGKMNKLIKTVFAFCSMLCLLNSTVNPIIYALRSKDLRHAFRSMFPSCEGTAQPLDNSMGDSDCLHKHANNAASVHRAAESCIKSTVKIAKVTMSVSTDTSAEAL
Test: biochemical
Assay type: binding
Settings: displacement of [3H]CP55940, hCB1 HEK-293 membranes; read-out: CB1 IC50
# Lookup of reported pIC50 keyed by entry
// scale note: pIC50 = -log10(conc_M); give the bare number

| Compound | Quantitative Result |
| --- | --- |
| CCCCCCC(C)(C)c1cc(OC(=O)CCC(=O)O)c([C@H]2CC(=O)[C@H]3C[C@@H]2C3(C)C)c(OC(=O)CCC(=O)O)c1 | 6.93 |

Query: Given CCCCCCC(C)(C)c1cc(OC)c(C2CC(=O)C3CC2C3(C)C)c(OC)c1 (single isomer, unassigned; (-)) , state its recorded pIC50.
Response: 5.55

Query: Given CC(C)(c1ccc(Cl)cc1)c1cc(O)c(C2CC(=O)C3CC2C3(C)C)c(O)c1 (single isomer, unassigned; (-)) , state its recorded pIC50.
Response: 6.18

Query: Given CC(C)(CCCCC#N)c1cc(O)c([C@H]2CC(=O)[C@H]3C[C@@H]2C3(C)C)c(O)c1 , state its recorded pIC50.
Response: 6.64
